The reported measurements were obtained from patent US4547509A.

System: Canine cardiac lipases
Experiment: Myocardial Lipase Assay
Format: biochemical
Conditions: 100 μM compound, 3.0% DMSO, triolein emulsion, pH 6.8, tested in duplicate
Binary call on Lipase % Inh. at 100 μM: True from 10% upward, False beneath that.

Example results:
Molecule: O=C(Nc1ccccc1Cl)Oc1ccc2cccnc2c1 [Example 9, 7-quinolyl-2-chloro carbanilate]
System Tested: Canine cardiac lipases
Class Name: False

Molecule: COc1cccc(NC(=O)Oc2ccc3cccnc3c2)c1 [Example 7, 7-quinolyl-3-methoxy carbanilate]
System Tested: Canine cardiac lipases
Class Name: True

Molecule: COc1ccc(CCNC(=O)Oc2ccc3cccnc3c2)cc1 [Example 12, 7-quinolyl-4-methoxy phenethyl carbamate]
System Tested: Canine cardiac lipases
Class Name: True

Molecule: CCOC(=O)c1ccc(NC(=O)Oc2ccc3cccnc3c2)cc1 [Example 8, 7-quinolyl-4-carbethoxy carbanilate]
System Tested: Canine cardiac lipases
Class Name: True

Could you now consider this next molecule?
stdin: Form field: Lipase % Inh. at 100 μM at least 10%? Entry: O=C(Nc1ccccc1C(F)(F)F)Oc1ccc2cccnc2c1 [Example 11, 7-quinolyl-2-trifluoromethyl carbanilate]
stdout: True

###

Assign pIC50 to each entry below.
Biological target: Canine cardiac lipases
Test: Myocardial Lipase Assay
Conditions: triolein emulsion, pH 6.8; read-out: Lipase I50
Numbers only, as −log10 of the molar value.

Take a look at these entries with their results.
Compound: COc1ccccc1NC(=O)Oc1ccc2cccnc2c1 [Example 4, 7-quinolyl-2-methoxy carbanilate]
Experimental Endpoint: pIC50
Result Value: 4.32

Compound: COc1ccccc1NC(=O)Oc1ccc2ncccc2c1 [Example 5, 6-quinolyl-2-methoxy carbanilate]
Experimental Endpoint: pIC50
Result Value: 4.38

API: the following record is the query input.
Item COc1ccccc1NC(=O)Oc1cccc2ncccc12 [Example 6, 5-quinolyl-2-methoxy carbanilate] ; assay system Canine cardiac lipases; pIC50 reported as 4.32

###

I'd appreciate it if you could supply inhibition at 200 µM values for the items below.
System: rat adipocyte lipolysis
Assay: Rat Adipocyte Assay (epinephrine-stimulated lipolysis, glycerol release)
Format: cell-based
Conditions: 200 μM compound, epinephrine 3 μM plus methylisobutylxanthine 10 μM, 1 hour at 37° C., read-out: Adipocyte % Inhib. at 200 μM
The number alone won't do; follow it with the unit.

Molecule: Cc1ccccc1NC(=O)Oc1ccc2cccnc2c1 [Example 10, 7-quinolyl-2-methyl carbanilate]
System Tested: rat adipocyte lipolysis
inhibition at 200 µM: 20%
//
Molecule: COc1cccc(NC(=O)Oc2ccc3cccnc3c2)c1 [Example 7, 7-quinolyl-3-methoxy carbanilate]
System Tested: rat adipocyte lipolysis
inhibition at 200 µM: 25%
//
Molecule: COc1ccccc1NC(=O)Oc1cccc2ncccc12 [Example 6, 5-quinolyl-2-methoxy carbanilate]
System Tested: rat adipocyte lipolysis
inhibition at 200 µM: 31%

Moving on to the next molecule.
Reported inhibition at 200 µM (rat adipocyte lipolysis) for entry CCOC(=O)c1ccc(NC(=O)Oc2ccc3cccnc3c2)cc1 [Example 8, 7-quinolyl-4-carbethoxy carbanilate] is 18%
